Data origin: ChEMBL document CHEMBL2417494

As shown below, each of these molecules has a reported bioavailability value.
Assay: Oral bioavailability in Beagle dog at 2 mg/kg
Format: ADME, organism-based, Canis lupus familiaris
Details: in vivo
Note to self: number, then unit, no commentary.

Please review the following examples before continuing.
CCOC(=O)c1cc(C#N)c(N2CC(C(=O)NS(=O)(=O)Cc3ccc(F)cc3)C2)nc1C    27%
CCOC(=O)c1cc(C#N)c(N2CC(C(=O)NS(=O)(=O)Cc3ccccc3)C2)nc1C    100%
CCOC(=O)c1cc(C#N)c(N2CCC(C(=O)NS(=O)(=O)Cc3ccc(F)cc3F)CC2)nc1C    53%

Prompt line: Provide bioavailability value for the following molecule: "CCOC(=O)c1cc(C#N)c(N2CCC(C(=O)NS(=O)(=O)Cc3ccccc3)CC2)nc1C"
Response line: 100%

====

Test: Dissociation constant, pKa of the compound
Type: physicochemical
Result type: pKa
The response must contain the number and no unit.

CCOC(=O)c1cc(C#N)c(N2CCC(C(=O)NS(=O)(=O)Cc3ccccc3)CC2)nc1C    4.6

Prompt line: Provide pKa value for the following compound: "CCOC(=O)c1cc(C#N)c(N2CC(C(=O)NS(=O)(=O)Cc3ccccc3)C2)nc1C"
Response line: 3.6

Prompt line: Provide pKa value for the following compound: "CCOC(=O)c1cc(C#N)c(N2CC(C(=O)NS(=O)(=O)Cc3ccc(C)cc3)C2)nc1C"
Response line: 3.4

Prompt line: Provide pKa value for the following compound: "CCOC(=O)c1cc(C#N)c(N2CCC(C(=O)NS(=O)(=O)Cc3ccc(C)cc3)CC2)nc1C"
Response line: 4.6

====

As shown below, each of these molecules has a reported chromatographic logD value.
Assay: Lipophilicity, log D of the compound at pH 6.8 by chromatographic method
Assay type: physicochemical
Settings: buffer
The response must contain the number and no unit.

Please review the following examples before continuing.
CCOC(=O)c1cc(C#N)c(N2CC(C(=O)NS(=O)(=O)Cc3ccc(CO)cc3)C2)nc1C    1.1
CCOC(=O)c1cc(C#N)c(N2CC(C(=O)NS(=O)(=O)CC3CCCCC3)C2)nc1C    2.6

We next turn to a different molecule, shown below.
Prompt line: Provide chromatographic logD value for the following molecule: "CCOC(=O)c1cc(C#N)c(N2CCC(C(=O)NS(=O)(=O)c3ccccc3)CC2)nc1C"
Response line: 2.3

====

As shown below, each of these compounds has a reported chromatographic logD value.
Experiment: Lipophilicity, log D of the compound at pH 6.8 by chromatographic method
Assay type: physicochemical
Settings: buffer

CCOC(=O)c1cc(C#N)c(N2CC(C(=O)NS(=O)(=O)CCc3ccccc3)C2)nc1C    2.2
CCOC(=O)c1cc(C#N)c(N2CC(C(=O)NS(=O)(=O)Cc3ccccc3C)C2)nc1C    2.2
CCOC(=O)c1cc(C#N)c(N2CC(C(=O)NS(=O)(=O)c3ccccc3)C2)nc1C    1.7
CCOC(=O)c1cc(C#N)c(N2CCC(C(=O)NS(=O)(=O)Cc3ccc(F)cc3)CC2)nc1C    2.8
CCOC(=O)c1cc(C#N)c(N2CCC(C(=O)NS(=O)(=O)c3ccc(Cl)s3)CC2)nc1C    3.1
CCOC(=O)c1cc(C#N)c(N2CCC(C(=O)NS(=O)(=O)Cc3ccc(C)cc3)CC2)nc1C    3.2

Prompt line: Provide chromatographic logD value for the following compound: "CCOC(=O)c1cc(C#N)c(N2CC(C(=O)NS(=O)(=O)c3ccc(Cl)s3)C2)nc1C"
Response line: 2.6

Prompt line: Provide chromatographic logD value for the following compound: "CCOC(=O)c1cnc(N2CC(C(=O)NS(=O)(=O)c3ccc(Cl)s3)C2)c(Cl)c1"
Response line: 2.3

Prompt line: Provide chromatographic logD value for the following compound: "CCOC(=O)c1cc(C#N)c(N2CCC(C(=O)NS(=O)(=O)Cc3ccccc3)CC2)nc1C"
Response line: 2.8
